# measurement target: T1, human fXIa (Homo sapiens, UniProt P03951)
# T1 construct: Human coagulation factors IIa (thrombin), Xa, XIa, XIIa, EGR-fXa; purchased Haematologic Technologies Inc (United States)
# T1 sequence (P03951 19-387 limits assumed): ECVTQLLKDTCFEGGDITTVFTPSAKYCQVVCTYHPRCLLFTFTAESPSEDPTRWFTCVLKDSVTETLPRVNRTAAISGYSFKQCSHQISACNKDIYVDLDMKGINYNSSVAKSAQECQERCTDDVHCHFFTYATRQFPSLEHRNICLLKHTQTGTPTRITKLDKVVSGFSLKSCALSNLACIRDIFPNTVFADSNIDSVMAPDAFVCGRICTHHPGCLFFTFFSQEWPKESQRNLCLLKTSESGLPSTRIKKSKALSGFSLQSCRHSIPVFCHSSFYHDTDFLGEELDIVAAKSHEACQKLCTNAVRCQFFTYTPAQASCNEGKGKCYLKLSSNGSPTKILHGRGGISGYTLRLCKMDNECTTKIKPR
# T1 sequence (P03951 388-625 limits assumed): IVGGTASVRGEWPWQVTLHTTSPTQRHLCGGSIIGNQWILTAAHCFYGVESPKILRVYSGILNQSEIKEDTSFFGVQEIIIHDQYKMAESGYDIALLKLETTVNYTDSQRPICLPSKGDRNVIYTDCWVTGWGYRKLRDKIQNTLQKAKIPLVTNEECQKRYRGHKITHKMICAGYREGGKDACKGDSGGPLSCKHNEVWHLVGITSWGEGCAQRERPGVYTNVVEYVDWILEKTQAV
# assay summary: Chromogenic assay, fXIa
# Format: biochemical
# condition: 100 nM
measured parameter: inhibition of the activity of fXIa

NAPTin-1 (protein, Sequence derived from Ancylostoma caninum or Synthetic) NPSCGENERHDECSRKECDPKCKYDGTEEKDDEKPVVCLTRVCYGDCICRDGFLRNKNGACVKAEDCELD
more than 90%
NAPTin-7 (protein, Sequence derived from Ancylostoma caninum or Synthetic) NPSCGENERHDECSRKECDPKCKYDGTEEKDDEKPVVCLTRVCYGDCICRDGFLRNKNGACVKAEDC
more than 90%
